Measurement description: MTT cytotoxicity assay, BEAS-2B
Assay type: cell-based
Measurement conditions: human, normal cell line BEAS-2B, 0.19–100 μM
Test readout: IC50 at 72 h

Some solved cases for reference:
Compound	IC50 at 72 h
CC[C@H](/C=C/[C@@H](C)[C@H]1CC[C@H]2[C@@H]3CC=C4C[C@@H](O)CC[C@]4(C)[C@H]3CC[C@]12C)C(C)C [Compound 14, stigmasta-5,22(E)-dien-3β-ol]	> 100 µM
C=C1CC23CCC4C(C)(C(=O)O)CCCC4(C)C2=CC(OC)C1C3 (centres unmarked) [Compound 1]	> 100 µM
C=C1C[C@@]23CC[C@@H]4[C@](C)(C(=O)O)CCC[C@@]4(C)C2=CC[C@@H]1C3 [Compound 6, ent-kaur-9(11),16-dien-19-oic acid]	> 100 µM
C=C1CC23CCC4C(C)(C(=O)O)CCCC4(C)C2=CC(=O)C1C3 (centres unmarked) [Compound 18]	38.6 µM

Alright, here's another compound for you.
Suppose we examine the compound C[C@@]12CCC[C@@](C)(C(=O)O)[C@H]1CC[C@@]13C[C@@H](CC[C@H]12)[C@](C)(O)C3 [Compound 2, (16R)-hydroxy-ent-kauran-19-oic acid] ; what IC50 at 72 h value has been reported?
> 100 µM
